Entry source: ChEMBL document CHEMBL1121883

Some compounds, each annotated with its measured LD50.
- MEASUREMENT_PROTOCOL: Lethal dose was measured in mice after ip administration.
- Format: toxicity, organism-based
- COND: mouse, in vivo
ENDPOINT_NAME: LD50

COMPOUND	ENDPOINT_NAME	RECORDED_RESULT
Cl.c1ccc2cc(C3(Cn4ccnc4)SCCCS3)ccc2c1	LD50	> 100 mg/kg
CC1(C)COC(Cn2ccnc2)(c2ccc3ccccc3c2)OC1.Cl	LD50	> 100 mg/kg
COc1ccc2cc(C(=O)Cn3ccnc3)ccc2c1.Cl	LD50	> 100 mg/kg
Cc1ccc2cc(C(=O)Cn3ccnc3)ccc2c1.Cl	LD50	> 100 mg/kg
OC(Cn1ccnc1)c1ccc2ccccc2c1 (centres undefined)	LD50	> 300 mg/kg
CSC(Cn1ccnc1)(SC)c1ccc2ccccc2c1.Cl	LD50	> 100 mg/kg
O=C1NC(=O)C(c2ccccc2)(c2ccccc2)N1	LD50	> 300 mg/kg
CCCSC(Cn1ccnc1)(SCCC)c1ccc2ccccc2c1.Cl	LD50	> 100 mg/kg
OC(Cn1ccnc1)c1cccc2ccccc12 (centres undefined)	LD50	> 300 mg/kg
CCSC(Cn1ccnc1)(SCC)c1ccc2ccccc2c1.Cl	LD50	> 100 mg/kg
CCC1(c2ccccc2)C(=O)NC(=O)NC1=O	LD50	> 100 mg/kg
Cl.c1ccc2cc(C3(Cn4ccnc4)SCCS3)ccc2c1	LD50	> 30 mg/kg
Cl.c1ccc2cc(CCn3ccnc3)ccc2c1	LD50	> 100 mg/kg
O=C(Cn1ccnc1)c1cccc2ccccc12	LD50	> 100 mg/kg
